system: SEM cells; experiment: cell viability relative to DMSO control; higher = less cytotoxic; details: RPMI 5 mM glucose + 10% FBS; 48 h; 0.0632 µM
Answer each item with its documented cell viability.
Reply numerically in %, unit not repeated.

Recorded cell viability of `C[C@@H]\1CC(=O)N\N=C1C2=CC=C(NN=C(C#N)C#N)C=C2` , please.
88.4

Item under review: `COc1ncc(-c2ccc3nccc(-c4ccnnc4)c3c2)cc1N[S+](=O)([O-])c1ccc(F)cc1F` . Reported cell viability?
51.9

What does the record list as cell viability for `CNC[C@H](O)c1ccc(O)c(O)c1` ?
102

Which cell viability value is on record for `O=C(Nc1ccc(F)c(C(F)(F)F)c1)Nc1nnc(-c2ccncc2)s1` ?
107

Which cell viability is listed for `FC(F)c1nc2ccccc2n1-c1nc(N2CCOCC2)nc(N2CCOCC2)n1` ?
75.3

Recorded cell viability of `CC(C)C(=O)Oc1ccc(CO)cc1[C@H](CCN(C(C)C)C(C)C)c1ccccc1` , please.
74.4

Need cell viability of `O=C(O)c1ccc2c(c1)nc(Nc1cccc(Cl)c1)c1ccncc12` , thanks.
111

Which cell viability is reported for this compound? `COc1cc(OC)c(/C=C/[S+](=O)([O-])Cc2ccc(OC)c(NCC(=O)[O][Na])c2)c(OC)c1`
111

Query: cell viability; subject: `C\C1=C(\C=C(\C#N)C(=O)N1)C2=CC=NC=C2`
121

What value of cell viability has been recorded for this entry: `O=C(NC[C@H](O)CO)c1ccncc1Nc1ccc(I)cc1F`
108

Given `CC/1=C(/N2[C@H](SC1)[C@H](NC(=O)[C@H](N)\C3=C\C\C=C/C3)C2=O)C(O)=O` , state its recorded cell viability.
115

// cell viability lookup, key: CNC1CCC(N(Cc2cccc(-c3ccncc3)c2)C(=O)c2sc3c(F)ccc(F)c3c2Cl)CC1 (centres undefined)
109

Can you look up the measured cell viability of `COCCCN1CCC(NC(=O)c2cc(Cl)c(N)c3c2OCC3)CC1` for me?
149

Would you mind telling me what cell viability value was observed for `C[S+](=O)([O-])N1CCc2c(-c3cnc(N)nc3)nc(N3CCOCC3)nc21` ?
75.3

May I ask what cell viability has been recorded for CCC(C)(Oc1ccc(C2(c3ccc(OC(C)(CC)C(=O)O)cc3)CCCCC2)cc1)C(=O)O (centres undefined) ?
108

Which cell viability is reported for this compound? `O=C(Nc1ccccc1-c1cn2c(CN3CCNCC3)csc2n1)c1cnc2ccccc2n1`
76

For the compound shown here, `CNc1nccc(-c2cccnc2Oc2cc(C(=O)Nc3cccc(C(F)(F)F)c3)ccc2C)n1` , give the reported cell viability.
111

What value of cell viability has been reported for the following compound? `COc1cc2nccc(Oc3ccc(NC(=O)NC4CC4)c(Cl)c3)c2cc1C(N)=O`
97.1

Dear colleague, I am looking for the recorded cell viability of the following compound: `NC\1=N\C(=O)N(\C=C1)[C@@H]2O[C@H](CO)[C@@H](O)[C@H]2O`
135

Values were extracted from the supplement of paper PMC11451515.
